- target_under_test: human relaxin family peptide receptor 2 (RXFP2) (human) (UniProt Q8WXD0)
- Sequence (Q8WXD0 whole entry): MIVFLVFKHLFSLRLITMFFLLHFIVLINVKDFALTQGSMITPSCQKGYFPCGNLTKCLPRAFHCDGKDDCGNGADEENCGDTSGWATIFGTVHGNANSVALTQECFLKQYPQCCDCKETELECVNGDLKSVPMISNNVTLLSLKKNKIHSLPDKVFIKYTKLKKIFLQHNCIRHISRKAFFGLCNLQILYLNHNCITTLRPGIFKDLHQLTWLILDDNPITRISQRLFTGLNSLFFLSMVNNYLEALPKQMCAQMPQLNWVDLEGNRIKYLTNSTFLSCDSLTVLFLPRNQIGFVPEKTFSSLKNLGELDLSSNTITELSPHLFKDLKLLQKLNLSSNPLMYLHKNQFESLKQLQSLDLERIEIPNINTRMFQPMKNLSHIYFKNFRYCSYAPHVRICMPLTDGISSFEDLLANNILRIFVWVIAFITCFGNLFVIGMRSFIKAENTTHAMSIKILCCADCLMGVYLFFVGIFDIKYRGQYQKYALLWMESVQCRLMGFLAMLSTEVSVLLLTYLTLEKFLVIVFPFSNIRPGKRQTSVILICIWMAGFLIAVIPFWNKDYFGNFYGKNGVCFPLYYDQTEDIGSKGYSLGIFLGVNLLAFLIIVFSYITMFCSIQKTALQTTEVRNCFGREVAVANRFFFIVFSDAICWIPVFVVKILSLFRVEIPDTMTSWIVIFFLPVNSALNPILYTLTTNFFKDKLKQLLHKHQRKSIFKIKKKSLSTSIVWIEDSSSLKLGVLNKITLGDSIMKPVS
Kindly supply the reported IC50, INSL3 (EC80)-stimulated cAMP in HEK293 stably expressing human RXFP2 values for the records listed here.
Entry rule: numbers only, all in nM.

IC50, INSL3 (EC80)-stimulated cAMP in HEK293 stably expressing human RXFP2 measured on RXFP2 mAb 4H1 (antibody, V domains shown) VH: QIQLVQSGPELKKPGETVKISCKTSGYTFTKYPMHWVKQAPGEGLKWMGWINTYSGLPTFADDFKGRFAFSLETSANTADLQINNLKNEDMATYFCAREGKKLSGYFDYWGQGTTLTVSS VL: DIKMTQSPSSMYASLGERVTITCKASQDINSYLTWFQQKPGQSPKTLIYRANRFVDGVPSRFSGSGSGQDYSLTITSLEYEDMGIYYCLQYDEFPYTFGGGTQLEIK = 218

// IC50, INSL3 (EC80)-stimulated cAMP in HEK293 stably expressing human RXFP2 value for RXFP2 mAb 4B8 (antibody, V domains shown) VH: QVQLKQSGPGLVQPSQSLSITCTVSGFSLSRYGVHWVRQSPGKGLEWLGVIWSGGSTEYNAVFKSRLSISKDNSKSQVFFKMNSLQANDTAIYYCVRADGYYAMEYWGQGTSVTVSS VL: DIQMTQSPASLSVSVGETVTITCRASENIYSNLAWYQQKQGKSPQLLVYAVTNLADGVPSRFSGSGSGTQYSLKINSLQSEDFGNYYCQHFWGTPYTFGGGTKLEIK : 116

RXFP2 mAb 4G6 (antibody, V domains shown) VH: EVQLQQSGPELVKPGASVKLSCKASGYTFTSYVMHWVKQKPEQGLEWIGYKNPSNDGIKYNEKFKGKATLTSDKSSNIAYMELFSLTSEDSAVYYCARSDFGSVWAMDYWGQGTSVTVSS VL: SIVMTQTPKFLLVSAGDRVTITCKASQSVNDDIVWYQQKPGQSPKLLIYYASNRYTGVPDRFTGSGYGTDFTFTISTVQAGDLAVYFCQQDYSSPFTFGSGTKLEIK yielded IC50, INSL3 (EC80)-stimulated cAMP in HEK293 stably expressing human RXFP2 of 15.6

Value of IC50, INSL3 (EC80)-stimulated cAMP in HEK293 stably expressing human RXFP2 reported for the binder RXFP2 mAb 4F6 (antibody, V domains shown) VH: EVQLQQSGPELVKPGASVKMSCKASGYTFTNYVLHWVKQKPGQGLEWIGYINPYNDGSKYNEKFKGRATLTSDKSSSTAYMELSSLTSEDSAVYYCARGGWLLDYFDYWGQGTTLTVSS VL: DVLMTQSPLSLPVSLGEQASISCRSSQSIVHSDGDTYLEWYLQKPGQSPNLLIYKVSNRFSGVPDRFSGSGSGTDFTLKISRVEAEDLGVYYCFQGSHVPPTFGGGTKLEIK is 354
